- measurement.notes: activity coefficient (dimensionless); of the first substance listed, at infinite dilution; xn = mol fraction of the nth substance listed
- measurement.conditions: 308.15 K; 100 kPa; Liquid; Chromatography; x1 = 0
property: activity coefficient
Lab note: jot down the number only; don't add units.

Example entries begin here.
{"compound": "c1ccncc1 [pyridine] + CCCC[n+]1ccc(C#N)cc1.O=S(=O)([N-]S(=O)(=O)C(F)(F)F)C(F)(F)F", "quantitative.readout": 0.47}
{"compound": "C#CCCCCCC [1-octyne] + CCCC[n+]1ccc(C#N)cc1.O=S(=O)([N-]S(=O)(=O)C(F)(F)F)C(F)(F)F", "quantitative.readout": 10.1}
{"compound": "c1ccccc1 [benzene] + CCCC[n+]1ccc(C#N)cc1.O=S(=O)([N-]S(=O)(=O)C(F)(F)F)C(F)(F)F", "quantitative.readout": 1.07}
{"compound": "C1=CCCCC1 [cyclohexene] + CCCC[n+]1ccc(C#N)cc1.O=S(=O)([N-]S(=O)(=O)C(F)(F)F)C(F)(F)F", "quantitative.readout": 7.51}
{"compound": "Cc1ccccc1C [1,2-dimethylbenzene] + CCCC[n+]1ccc(C#N)cc1.O=S(=O)([N-]S(=O)(=O)C(F)(F)F)C(F)(F)F", "quantitative.readout": 1.79}

activity coefficient recorded for this compound, CCOCC [diethyl ether] + CCCC[n+]1ccc(C#N)cc1.O=S(=O)([N-]S(=O)(=O)C(F)(F)F)C(F)(F)F , is 3.17

activity coefficient reading for CCCCC [pentane] + CCCC[n+]1ccc(C#N)cc1.O=S(=O)([N-]S(=O)(=O)C(F)(F)F)C(F)(F)F : 26.7

====

- measurement.notes: activity coefficient (dimensionless); of the first substance listed, at infinite dilution; xn = mol fraction of the nth substance listed
- measurement.conditions: 338.15 K; 100 kPa; Liquid; Chromatography; x1 = 0
property: activity coefficient

Study these solved cases before continuing.
{"compound": "C1CCCCCC1 [cycloheptane] + CCCC[n+]1ccc(C#N)cc1.O=S(=O)([N-]S(=O)(=O)C(F)(F)F)C(F)(F)F", "activity coefficient": 17.8}
{"compound": "CCCC(C)=O [pentan-2-one] + CCCC[n+]1ccc(C#N)cc1.O=S(=O)([N-]S(=O)(=O)C(F)(F)F)C(F)(F)F", "activity coefficient": 0.824}
{"compound": "CCCCCCCC [octane] + CCCC[n+]1ccc(C#N)cc1.O=S(=O)([N-]S(=O)(=O)C(F)(F)F)C(F)(F)F", "activity coefficient": 51.3}
{"compound": "C#CCCCCC [1-heptyne] + CCCC[n+]1ccc(C#N)cc1.O=S(=O)([N-]S(=O)(=O)C(F)(F)F)C(F)(F)F", "activity coefficient": 7.21}
{"compound": "Cc1ccccc1 [toluene] + CCCC[n+]1ccc(C#N)cc1.O=S(=O)([N-]S(=O)(=O)C(F)(F)F)C(F)(F)F", "activity coefficient": 1.7}

In the following, a different compound is considered.
Consider CCCCC [pentane] + CCCC[n+]1ccc(C#N)cc1.O=S(=O)([N-]S(=O)(=O)C(F)(F)F)C(F)(F)F . Its measured activity coefficient is 20.2

====

- measurement.notes: activity coefficient (dimensionless); of the first substance listed, at infinite dilution; xn = mol fraction of the nth substance listed
- measurement.conditions: 328.15 K; 100 kPa; Liquid; Chromatography; x1 = 0
Listing of entries alongside the reported activity coefficient.

// below: answered compounds
{"compound": "CC(C)=O [acetone] + CCCC[n+]1ccc(C#N)cc1.O=S(=O)([N-]S(=O)(=O)C(F)(F)F)C(F)(F)F", "result": 0.427}
{"compound": "CCCCCCCC [octane] + CCCC[n+]1ccc(C#N)cc1.O=S(=O)([N-]S(=O)(=O)C(F)(F)F)C(F)(F)F", "result": 55.3}
{"compound": "C#CCCCC [1-hexyne] + CCCC[n+]1ccc(C#N)cc1.O=S(=O)([N-]S(=O)(=O)C(F)(F)F)C(F)(F)F", "result": 5.01}
{"compound": "COC(C)(C)C [2-methoxy-2-methylpropane] + CCCC[n+]1ccc(C#N)cc1.O=S(=O)([N-]S(=O)(=O)C(F)(F)F)C(F)(F)F", "result": 3.24}
{"compound": "CCCC(C)=O [pentan-2-one] + CCCC[n+]1ccc(C#N)cc1.O=S(=O)([N-]S(=O)(=O)C(F)(F)F)C(F)(F)F", "result": 0.783}
{"compound": "CCc1ccccc1 [ethylbenzene] + CCCC[n+]1ccc(C#N)cc1.O=S(=O)([N-]S(=O)(=O)C(F)(F)F)C(F)(F)F", "result": 2.67}
{"compound": "CCCCO [butan-1-ol] + CCCC[n+]1ccc(C#N)cc1.O=S(=O)([N-]S(=O)(=O)C(F)(F)F)C(F)(F)F", "result": 2.74}

Here's the next entry for you.
get_value(item= C=CCCCCCC [oct-1-ene] + CCCC[n+]1ccc(C#N)cc1.O=S(=O)([N-]S(=O)(=O)C(F)(F)F)C(F)(F)F , readout=activity coefficient) returns 28.6
